- target.of.assay: Histone acetyltransferase p300 (Homo sapiens)
- Sequence (Q09472 whole entry, the tested form may be a part): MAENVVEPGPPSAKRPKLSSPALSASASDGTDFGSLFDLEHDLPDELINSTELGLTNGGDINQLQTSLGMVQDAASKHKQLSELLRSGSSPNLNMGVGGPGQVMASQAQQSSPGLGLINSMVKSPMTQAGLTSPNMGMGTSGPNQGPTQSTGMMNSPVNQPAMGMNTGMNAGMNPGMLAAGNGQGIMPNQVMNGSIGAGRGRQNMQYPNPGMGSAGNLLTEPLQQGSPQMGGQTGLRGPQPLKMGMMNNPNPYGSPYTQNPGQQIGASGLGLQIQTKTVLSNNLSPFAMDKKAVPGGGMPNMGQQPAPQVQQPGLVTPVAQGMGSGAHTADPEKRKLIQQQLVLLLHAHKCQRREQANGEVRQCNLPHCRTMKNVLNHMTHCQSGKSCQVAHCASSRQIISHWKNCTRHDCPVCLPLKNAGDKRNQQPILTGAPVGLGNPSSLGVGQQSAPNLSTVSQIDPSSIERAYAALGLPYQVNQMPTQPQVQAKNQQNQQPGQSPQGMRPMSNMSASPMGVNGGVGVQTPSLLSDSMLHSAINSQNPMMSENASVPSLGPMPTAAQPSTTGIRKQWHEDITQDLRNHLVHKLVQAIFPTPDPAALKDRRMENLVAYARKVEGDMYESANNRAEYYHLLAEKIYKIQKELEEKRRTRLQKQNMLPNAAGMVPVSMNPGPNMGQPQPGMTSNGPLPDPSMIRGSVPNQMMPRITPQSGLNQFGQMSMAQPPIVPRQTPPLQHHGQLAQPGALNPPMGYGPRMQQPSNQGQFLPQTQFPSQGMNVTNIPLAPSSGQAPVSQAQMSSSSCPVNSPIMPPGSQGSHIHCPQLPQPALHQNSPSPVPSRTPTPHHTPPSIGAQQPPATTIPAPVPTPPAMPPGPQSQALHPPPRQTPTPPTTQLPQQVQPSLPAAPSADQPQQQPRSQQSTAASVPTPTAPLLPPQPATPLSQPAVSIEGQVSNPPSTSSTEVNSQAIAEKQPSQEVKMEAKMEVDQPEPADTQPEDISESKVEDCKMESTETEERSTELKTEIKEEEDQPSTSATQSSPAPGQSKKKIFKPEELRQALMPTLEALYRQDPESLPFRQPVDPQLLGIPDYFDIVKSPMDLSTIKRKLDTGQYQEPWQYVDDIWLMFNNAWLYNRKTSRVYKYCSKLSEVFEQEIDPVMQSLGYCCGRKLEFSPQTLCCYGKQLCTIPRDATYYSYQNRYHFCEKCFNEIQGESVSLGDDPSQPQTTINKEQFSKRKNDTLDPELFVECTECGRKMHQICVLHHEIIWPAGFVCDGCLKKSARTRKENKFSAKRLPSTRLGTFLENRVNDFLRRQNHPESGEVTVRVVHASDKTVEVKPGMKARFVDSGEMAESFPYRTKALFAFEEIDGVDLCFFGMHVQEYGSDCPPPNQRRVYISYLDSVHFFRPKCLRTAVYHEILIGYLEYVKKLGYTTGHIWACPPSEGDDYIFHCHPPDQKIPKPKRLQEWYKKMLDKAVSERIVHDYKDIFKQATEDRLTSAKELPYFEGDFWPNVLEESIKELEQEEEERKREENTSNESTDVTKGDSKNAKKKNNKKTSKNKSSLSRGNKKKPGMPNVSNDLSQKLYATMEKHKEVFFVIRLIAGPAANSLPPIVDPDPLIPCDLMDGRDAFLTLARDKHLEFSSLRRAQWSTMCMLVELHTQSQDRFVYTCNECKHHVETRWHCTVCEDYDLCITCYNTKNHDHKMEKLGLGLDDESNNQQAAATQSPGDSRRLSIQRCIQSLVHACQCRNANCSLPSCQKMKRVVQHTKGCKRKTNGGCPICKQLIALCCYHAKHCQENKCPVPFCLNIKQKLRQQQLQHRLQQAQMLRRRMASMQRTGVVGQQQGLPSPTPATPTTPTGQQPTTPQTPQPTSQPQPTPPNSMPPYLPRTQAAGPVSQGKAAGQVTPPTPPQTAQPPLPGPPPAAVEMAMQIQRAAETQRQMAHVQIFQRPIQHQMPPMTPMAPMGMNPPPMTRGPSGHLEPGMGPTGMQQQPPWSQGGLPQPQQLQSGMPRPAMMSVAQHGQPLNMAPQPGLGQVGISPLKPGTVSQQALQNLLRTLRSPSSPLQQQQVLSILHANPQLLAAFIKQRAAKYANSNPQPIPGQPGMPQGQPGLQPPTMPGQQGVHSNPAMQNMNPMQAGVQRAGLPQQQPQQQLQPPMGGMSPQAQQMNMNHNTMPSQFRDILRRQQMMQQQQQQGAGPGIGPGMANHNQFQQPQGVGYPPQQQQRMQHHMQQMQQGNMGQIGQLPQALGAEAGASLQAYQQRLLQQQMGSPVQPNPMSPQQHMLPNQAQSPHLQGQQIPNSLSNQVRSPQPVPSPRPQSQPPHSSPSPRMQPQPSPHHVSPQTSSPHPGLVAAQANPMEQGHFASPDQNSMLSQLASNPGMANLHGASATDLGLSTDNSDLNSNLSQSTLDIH
- assay.details: Inhibition of recombinant human GST-tagged p300 HAT domain (1195 to 1673 residues) expressed in Escherichia coli BL21 codon plus cells using Histone H3 peptide (1 to 21) and [3H]acetyl-CoA as substrate preincubated with enzyme for 10 mins followed by substrate addition and measured after 30 mins by scintillation counting method
pIC50: −log10 of the molar value.
Here, each record is paired with measured pIC50 data.
attribute.measured: pIC50

{"molecular.string": "CC(C)(C)c1ccc(-c2cc(CN3CCNCC3)sc2-c2ccc(C(C)(C)C)cc2)cc1", "observed.measurement": "< 5.00"}
{"molecular.string": "CC(C)(C)c1ccc(-c2sc(CNCC3CCNCC3)cc2-c2ccc(CN)cc2)cc1", "observed.measurement": "< 5.00"}
{"molecular.string": "CC(C)(C)c1ccc(-c2sc(C(=O)NCC3CCNCC3)cc2-c2ccc(CN)cc2)cc1", "observed.measurement": 5.00}
{"molecular.string": "CC(C)(C)c1ccc(-c2cc(CNC3CCNCC3)sc2-c2ccc(C(C)(C)C)cc2)cc1", "observed.measurement": 5.30}
{"molecular.string": "COc1ccc(-c2cc(CNCC3CCNCC3)sc2-c2ccc(OC)c(OC)c2)cc1OC", "observed.measurement": "< 5.00"}
{"molecular.string": "CC(C)(C)c1ccc(-c2cc(CN3CCOCC3)sc2-c2ccc(C(C)(C)C)cc2)cc1", "observed.measurement": "< 5.00"}
{"molecular.string": "CC(C)(C)c1ccc(-c2cc(CNCCC3CCNCC3)sc2-c2ccc(C(C)(C)C)cc2)cc1", "observed.measurement": 5.66}
{"molecular.string": "CC(C)(C)c1ccc(-c2sc(C(=O)NCC3CCNCC3)cc2-c2ccc(CN3CCNCC3)cc2)cc1", "observed.measurement": "< 5.00"}

Attribution: ChEMBL document CHEMBL4342520
